Parameter pIC50: see the listing below.
biological target: human c-MER catalytic domain (Homo sapiens (Human)); test: LanthaScreen TR-FRET kinase assay, c-MER; settings: read-out: Mer TK inhibition (IC50); Biochemical IC50, TR-FRET, 10 uM ATP
pIC50: −log10 of the molar value.

>>> result("Cc1ccc(COC[C@@H](C)NC(=O)c2cc(-c3cnn(C)c3)cnc2N)cc1C")
"< 6.00"
>>> result("CC(C)N1C[C@H](NC(=O)c2cc(-c3cnn(C)c3)cnc2N)[C@@H](OCc2ccccc2)C1 (relative stereo)")
"< 6.00"
>>> result("CN1CCN(Cc2ccc(-c3ccc(CO[C@H]4CCC[C@@H]4NC(=O)c4cc(-c5ccc(F)cc5)cnc4N)cc3)cc2)CC1")
"> 8.00"
>>> result("C[C@@H](c1ccc(-c2ccc(CO[C@H]3CCC[C@@H]3NC(=O)c3cc(-c4ccc(F)nc4)cnc3N)cc2)cc1)N1CCN(C)CC1")
"> 8.00"
>>> result("C[C@@H]1CN(Cc2ccc(-c3ccc(CO[C@H]4CCC[C@@H]4NC(=O)c4cc(-c5cnn(C)c5)cnc4N)cc3)cc2)C[C@H](C)N1C")
"> 8.00"

C[C@H](COCC1CCC1)NC(=O)c1cc(-c2cnn(C)c2)cnc1N yielded pIC50 of < 6.00

Cc1ccc(CO[C@H]2CNC[C@@H]2NC(=O)c2cc(-c3cnn(C)c3)cnc2N)cc1 yielded pIC50 of > 8.00

Value of pIC50 reported for the compound CC(c1ccc(-c2ccc(CO[C@H]3CCC[C@@H]3NC(=O)c3cc(-c4cccnc4F)cnc3N)cc2)cc1)N1CCN(CCO)CC1 (stereo partly drawn) is > 8.00

====

IC50 by entry:
molecular target: human c-MER catalytic domain (Homo sapiens (Human)); assay: LanthaScreen TR-FRET kinase assay, c-MER; details: read-out: Mer TK inhibition (IC50); Biochemical IC50, TR-FRET, 10 uM ATP

Study these solved cases before continuing.
>>> result("CN1CCC(n2cc(-c3cnc(N)c(C(=O)N[C@H]4CCC[C@@H]4OCc4ccc(-c5ccc(CN6CCN(C)CC6)cc5)cc4)c3)cn2)CC1")
"< 10 nM"
>>> result("C[C@H](CNC(=O)c1cc(-c2cnn(C)c2)cnc1N)OCc1ccccc1")
"> 1000 nM"
>>> result("CN1CCN(Cc2ccc(-c3ccc(CO[C@H]4CNC[C@@H]4NC(=O)c4cc(-c5cnn(C)c5)cnc4N)cc3)cc2)CC1")
"< 10 nM"

Entry CN1CCN(Cc2ccc(-c3ccc(CO[C@H]4CCC[C@@H]4NC(=O)c4cc(-c5cnn(C(F)(F)C(F)F)c5)cnc4N)cc3)cc2)CC1 ; assay system human c-MER catalytic domain (Homo sapiens (Human)); IC50 recorded at < 10 nM

====

biological target: human c-MER catalytic domain (Homo sapiens (Human)); assay: LanthaScreen TR-FRET kinase assay, c-MER; settings: read-out: Mer TK inhibition (IC50); Biochemical IC50, TR-FRET, 10 uM ATP
Entries and their measured IC50 follow.

>>> result("CN1CCC(Cc2ccc(-c3ccc(CO[C@H]4CCC[C@@H]4NC(=O)c4cc(-c5cnn(C)c5)cnc4N)cc3)cc2)CC1")
"< 10 nM"
>>> result("Cn1cc(-c2cnc(N)c(C(=O)N[C@H]3CNC[C@@H]3OCc3ccc(-c4ccc(CN5CCN(CCO)CC5)c(C(F)(F)F)c4)cc3)c2)cn1")
"< 10 nM"
>>> result("CCc1cc(CO[C@H]2CNC[C@@H]2NC(=O)c2cc(-c3ccc(CO)cc3)cnc2N)ccc1C")
"< 10 nM"
>>> result("Cn1cc(-c2cnc(N)c(C(=O)N[C@H]3CCC[C@@H]3OCc3cccc(-c4cccc(O)c4)c3)c2)cn1")
"> 1000 nM"
>>> result("Nc1ncc(-c2cnn(C3CCNCC3)c2)nc1C(=O)N[C@H]1CCCc2ccccc21")
"> 1000 nM"

Note to self: IC50 recorded for CN1CCN(Cc2ccc(-c3ccc(CO[C@H]4CN(C)C[C@@H]4NC(=O)c4cc(-c5cnn(C)c5)cnc4N)cc3)cc2)CC1 was < 10 nM

// sample COc1ccc(-c2cnc(N)c(C(=O)N[C@H]3CCC[C@@H]3OCc3ccc(-c4ccc(CN5CCN(C)CC5)cc4)cc3)c2)cc1 , its IC50 was < 10 nM

According to the records, this compound C[C@H](c1ccc(-c2ccc(CO[C@H]3CCC[C@@H]3NC(=O)c3cc(-c4cnn(C)c4)cnc3N)cc2)cc1)N1CCN(C)CC1 displays IC50 of < 10 nM

Item: CCCNC(=O)[C@@H](NC(=O)c1cc(-c2cnn(C)c2)cnc1N)[C@@H](C)OCc1ccccc1 | IC50: > 1000 nM

# IC50 of CN1CCN(Cc2ccc(-c3ccc(CO[C@H]4CCC[C@@H]4NC(=O)c4cc(-c5cnn(C)c5)cnc4N)cc3)cc2F)CC1 = < 10 nM

====

molecular target: human c-MER catalytic domain (Homo sapiens (Human)); experiment: LanthaScreen TR-FRET kinase assay, c-MER; details: read-out: Mer TK inhibition (IC50); Biochemical IC50, TR-FRET, 10 uM ATP
pIC50: −log10 of the molar value.
Measured pIC50 values are reported for all entries that follow.

Worked cases, answers included:
>>> result("C[C@H](c1ccc(-c2ccc(CO[C@H]3CCC[C@@H]3NC(=O)c3cc(-c4ccc(F)nc4)cnc3N)cc2)cc1)N1CCN(CCO)CC1")
"> 8.00"
>>> result("Cn1cc(-c2cnc(N)c(C(=O)N[C@H]3COC[C@@H]3N3CCCC3)c2)cn1 (relative stereo)")
"< 6.00"
>>> result("CC(C)C[C@@H](COCc1ccccc1)NC(=O)c1cc(-c2cnn(C)c2)cnc1N")
"< 6.00"
>>> result("CNc1ccc(-c2ccc(CO[C@H]3CCC[C@@H]3NC(=O)c3cc(-c4cnn(C)c4)cnc3N)cc2)cc1")
"> 8.00"
>>> result("CN1CCN(Cc2ccc(-c3ccc(CO[C@H]4CCCC[C@@H]4NC(=O)c4cc(-c5cnn(C)c5)cnc4N)cc3)cc2)CC1")
"< 6.00"
>>> result("Cc1ccc(CNc2ncc(-c3cnn(C)c3)cc2C(=O)N[C@H]2CCC[C@@H]2OCc2ccccc2)cc1C")
"< 6.00"

Record Cc1ccc(CO[C@H]2CCC[C@@H]2NC(=O)c2cc(-c3ccc(C(=O)N4CCC(N5CCCC5)CC4)c(C)c3)cnc2N)cc1C , field pIC50: > 8.00

====

molecular target: human c-MER catalytic domain (Homo sapiens (Human)); test: LanthaScreen TR-FRET kinase assay, c-MER; conditions: read-out: Mer TK inhibition (IC50); Biochemical IC50, TR-FRET, 10 uM ATP
pIC50: −log10 of the molar value.
Entries and their pIC50

Examples with answers:
>>> result("Cn1cc(-c2cnc(N)c(C(=O)N[C@H]3COC[C@H]3O)c2)cn1 (relative stereo)")
"< 6.00"
>>> result("Nc1ncc(-c2ccc(F)nc2)cc1C(=O)N[C@H]1CCC[C@@H]1OCc1ccc(-c2ccc(C3(N4CCN(CCO)CC4)CC3)cc2)cc1")
"> 8.00"
>>> result("CN1CCN(C(C)(C)c2ccc(-c3ccc(CO[C@H]4CCC[C@@H]4NC(=O)c4cccnc4N)cc3)cc2)CC1")
"> 8.00"

pIC50 reported for this compound Cc1ccc(CO[C@H]2CCC[C@@H]2NC(=O)c2cc(-c3ccc(CN4CCC(N5CCCC5)CC4)c(F)c3)cnc2N)cc1C : > 8.00

Briefly, pIC50 measured for Nc1ncc(-c2ccc(Oc3ccccc3)cc2)cc1C(=O)N[C@H]1CCC[C@@H]1OCc1ccccc1 : < 6.00

The reported pIC50 of the compound CCc1cc(CO[C@H]2CCC[C@@H]2NC(=O)c2cc(-c3ccc(C(C)(C)N4CCN(CCO)CC4)cc3)cnc2N)ccc1C was > 8.00

// CN1CCN(Cc2ccc(-c3ccc(CO[C@H]4CCC[C@@H]4NC(=O)c4cc(C5=CCCCC5)cnc4N)cc3)cc2)CC1 : pIC50 value = > 8.00

====

Form field: pIC50 (one value per entry).
biological target: human c-MER catalytic domain (Homo sapiens (Human), UniProt Q12866); test: LanthaScreen TR-FRET kinase assay, c-MER; conditions: read-out: Mer TK inhibition (IC50); Biochemical IC50, TR-FRET, 10 uM ATP
Sequence (Q12866 587-858): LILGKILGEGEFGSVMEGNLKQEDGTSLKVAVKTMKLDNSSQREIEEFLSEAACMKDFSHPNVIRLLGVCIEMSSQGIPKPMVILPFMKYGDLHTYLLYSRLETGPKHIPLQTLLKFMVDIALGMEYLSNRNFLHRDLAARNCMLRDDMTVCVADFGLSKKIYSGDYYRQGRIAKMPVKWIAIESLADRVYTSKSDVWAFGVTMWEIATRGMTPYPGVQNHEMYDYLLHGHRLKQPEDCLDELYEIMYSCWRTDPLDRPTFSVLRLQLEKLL
pIC50: −log10 of the molar value.

Past entries and their recorded results:
>>> result("CC(c1ccc(-c2ccc(CO[C@H]3CNC[C@@H]3NC(=O)c3cc(-c4cnn(C)c4)cnc3N)cc2)cc1)N1CCN(CCO)CC1 (stereo partly drawn)")
"> 8.00"
>>> result("Cn1cc(-c2cnc(N)c(C(=O)N[C@H]3CCC[C@@H]3OCc3ccccc3-c3ccccc3)c2)cn1 (relative stereo)")
"< 6.00"
>>> result("CN(Cc1ccccc1)[C@H]1CCC[C@@H]1NC(=O)c1cc(-c2cnn(C)c2)cnc1N (relative stereo)")
"< 6.00"
>>> result("CN1CCN(Cc2ccc(-c3ccc(CO[C@H]4CNC[C@@H]4NC(=O)c4cc(-c5cnn(C)c5)cnc4N)cc3)cc2C(F)(F)F)CC1")
"> 8.00"
>>> result("CC1CN[C@@H](C)CN1Cc1ccc(-c2ccc(CO[C@H]3CCC[C@@H]3NC(=O)c3cc(-c4cnn(C)c4)cnc3N)cc2)cc1 (stereo partly drawn)")
"> 8.00"

Here's the next entry for you.
response.value for CN1CCN(Cc2ccc(-c3ccc(CO[C@H]4CCC[C@@H]4NC(=O)c4cc(-c5cnn(C)c5)cnc4N)cc3Cl)cc2)CC1 (field: pIC50) = > 8.00
